- Experimental target: PDGFRα (Homo sapiens, UniProt P16234)
- Sequence (P16234 24-1089): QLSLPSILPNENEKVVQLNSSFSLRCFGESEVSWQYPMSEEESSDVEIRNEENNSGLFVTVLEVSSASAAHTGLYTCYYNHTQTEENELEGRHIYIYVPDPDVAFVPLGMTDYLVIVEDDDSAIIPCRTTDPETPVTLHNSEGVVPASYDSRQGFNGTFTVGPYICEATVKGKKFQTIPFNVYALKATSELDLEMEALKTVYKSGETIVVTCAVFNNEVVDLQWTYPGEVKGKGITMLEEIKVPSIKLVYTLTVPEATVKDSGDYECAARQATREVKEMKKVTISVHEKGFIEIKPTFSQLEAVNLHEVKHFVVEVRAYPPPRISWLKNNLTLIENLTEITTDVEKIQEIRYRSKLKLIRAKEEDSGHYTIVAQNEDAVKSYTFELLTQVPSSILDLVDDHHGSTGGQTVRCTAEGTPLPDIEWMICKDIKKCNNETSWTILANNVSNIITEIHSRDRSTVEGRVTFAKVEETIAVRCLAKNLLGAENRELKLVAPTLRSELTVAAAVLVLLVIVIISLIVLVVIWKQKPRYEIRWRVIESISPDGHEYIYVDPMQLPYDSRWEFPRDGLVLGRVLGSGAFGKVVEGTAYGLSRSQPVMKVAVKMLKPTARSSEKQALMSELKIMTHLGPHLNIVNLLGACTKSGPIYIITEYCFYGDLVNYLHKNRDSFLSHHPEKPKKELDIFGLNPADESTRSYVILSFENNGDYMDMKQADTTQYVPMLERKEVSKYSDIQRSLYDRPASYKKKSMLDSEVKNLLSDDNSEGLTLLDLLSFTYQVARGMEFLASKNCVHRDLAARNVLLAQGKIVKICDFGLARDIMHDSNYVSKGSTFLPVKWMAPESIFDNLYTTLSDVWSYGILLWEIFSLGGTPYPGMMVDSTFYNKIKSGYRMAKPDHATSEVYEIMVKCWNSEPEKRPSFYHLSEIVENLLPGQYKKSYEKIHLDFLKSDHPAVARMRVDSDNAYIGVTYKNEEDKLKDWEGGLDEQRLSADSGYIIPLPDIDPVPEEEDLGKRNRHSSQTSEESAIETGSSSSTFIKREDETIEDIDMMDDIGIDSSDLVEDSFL
Measurement type: IC50 (nM)

COc1cc2c(Nc3ccc(Br)cc3F)ncnc2cc1OCCCCN(C)C.Cl.Cl | 58.7

----------
- Experimental target: EphA1 (Homo sapiens, UniProt P21709)
- Sequence (P21709 26-976): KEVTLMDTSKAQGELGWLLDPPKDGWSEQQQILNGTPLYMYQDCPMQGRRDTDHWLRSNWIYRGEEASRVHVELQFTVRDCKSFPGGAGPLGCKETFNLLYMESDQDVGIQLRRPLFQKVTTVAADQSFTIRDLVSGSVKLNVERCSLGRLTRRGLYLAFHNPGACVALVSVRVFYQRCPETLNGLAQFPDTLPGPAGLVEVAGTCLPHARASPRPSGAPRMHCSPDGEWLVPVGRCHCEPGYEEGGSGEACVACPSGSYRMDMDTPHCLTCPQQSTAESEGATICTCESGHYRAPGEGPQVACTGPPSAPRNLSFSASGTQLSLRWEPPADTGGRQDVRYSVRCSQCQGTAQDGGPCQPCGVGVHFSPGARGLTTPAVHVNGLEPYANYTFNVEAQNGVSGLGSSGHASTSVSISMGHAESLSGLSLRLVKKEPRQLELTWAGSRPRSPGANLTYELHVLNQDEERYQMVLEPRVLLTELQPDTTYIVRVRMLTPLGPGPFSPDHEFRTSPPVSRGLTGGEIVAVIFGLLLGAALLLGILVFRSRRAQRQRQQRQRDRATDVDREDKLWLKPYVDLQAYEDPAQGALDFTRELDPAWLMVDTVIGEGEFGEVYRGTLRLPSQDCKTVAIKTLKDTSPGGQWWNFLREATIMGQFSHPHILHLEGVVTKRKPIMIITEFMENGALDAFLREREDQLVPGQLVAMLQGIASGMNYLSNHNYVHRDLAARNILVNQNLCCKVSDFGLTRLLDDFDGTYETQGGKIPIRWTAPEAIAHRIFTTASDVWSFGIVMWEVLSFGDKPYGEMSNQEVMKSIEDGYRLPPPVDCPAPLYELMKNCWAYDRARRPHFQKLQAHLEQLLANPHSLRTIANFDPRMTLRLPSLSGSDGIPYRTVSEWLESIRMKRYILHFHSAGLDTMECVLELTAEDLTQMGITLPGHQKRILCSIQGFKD
Measurement type: IC50 (nM)

COc1cc2c(Nc3ccc(Br)cc3F)ncnc2cc1OCCCCN(C)C.Cl.Cl | 86.9

----------
- Experimental target: RET (Homo sapiens)
- Sequence (P07949 29-1114): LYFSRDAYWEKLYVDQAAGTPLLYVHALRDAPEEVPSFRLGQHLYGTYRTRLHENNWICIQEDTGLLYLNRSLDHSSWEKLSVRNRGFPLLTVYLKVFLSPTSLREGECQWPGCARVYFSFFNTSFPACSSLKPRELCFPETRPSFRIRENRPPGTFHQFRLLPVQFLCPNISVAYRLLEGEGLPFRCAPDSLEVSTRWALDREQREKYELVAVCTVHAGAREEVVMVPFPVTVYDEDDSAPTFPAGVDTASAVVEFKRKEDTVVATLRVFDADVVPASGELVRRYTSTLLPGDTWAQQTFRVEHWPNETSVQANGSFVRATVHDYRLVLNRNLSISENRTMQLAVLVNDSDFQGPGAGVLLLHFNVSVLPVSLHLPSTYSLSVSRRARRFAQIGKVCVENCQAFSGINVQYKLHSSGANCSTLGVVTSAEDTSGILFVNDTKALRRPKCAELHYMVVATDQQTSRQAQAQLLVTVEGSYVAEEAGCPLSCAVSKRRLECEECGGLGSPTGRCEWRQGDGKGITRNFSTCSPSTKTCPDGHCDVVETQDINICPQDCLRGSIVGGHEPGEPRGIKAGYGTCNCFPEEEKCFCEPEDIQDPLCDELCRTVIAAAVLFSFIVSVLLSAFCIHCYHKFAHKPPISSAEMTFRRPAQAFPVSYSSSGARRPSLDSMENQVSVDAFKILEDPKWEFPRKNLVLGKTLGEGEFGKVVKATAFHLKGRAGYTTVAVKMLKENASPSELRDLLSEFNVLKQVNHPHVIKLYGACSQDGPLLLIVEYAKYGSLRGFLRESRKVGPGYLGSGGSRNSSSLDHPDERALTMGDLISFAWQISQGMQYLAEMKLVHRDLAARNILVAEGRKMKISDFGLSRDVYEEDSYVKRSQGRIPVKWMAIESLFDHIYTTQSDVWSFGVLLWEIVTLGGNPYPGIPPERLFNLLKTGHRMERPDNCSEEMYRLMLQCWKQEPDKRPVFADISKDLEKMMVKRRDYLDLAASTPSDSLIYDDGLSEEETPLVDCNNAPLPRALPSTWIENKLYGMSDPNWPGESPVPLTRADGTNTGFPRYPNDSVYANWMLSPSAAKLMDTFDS
Measurement type: IC50 (nM)

COc1cc2c(Nc3ccc(Br)cc3F)ncnc2cc1OCCCCN(C)C.Cl.Cl | 8.72

----------
- Tested on: HUVEC cells
- Condition set: 50 ng/mL VEGF165
pIC50: −log10 of the molar value.
Measurement type: pIC50

COc1cc2c(Nc3ccc(Br)cc3F)ncnc2cc1OCCCCN(C)C.Cl.Cl | 7.18

----------
- Experimental target: LCK (Homo sapiens, UniProt P06239)
- Sequence (P06239 whole entry): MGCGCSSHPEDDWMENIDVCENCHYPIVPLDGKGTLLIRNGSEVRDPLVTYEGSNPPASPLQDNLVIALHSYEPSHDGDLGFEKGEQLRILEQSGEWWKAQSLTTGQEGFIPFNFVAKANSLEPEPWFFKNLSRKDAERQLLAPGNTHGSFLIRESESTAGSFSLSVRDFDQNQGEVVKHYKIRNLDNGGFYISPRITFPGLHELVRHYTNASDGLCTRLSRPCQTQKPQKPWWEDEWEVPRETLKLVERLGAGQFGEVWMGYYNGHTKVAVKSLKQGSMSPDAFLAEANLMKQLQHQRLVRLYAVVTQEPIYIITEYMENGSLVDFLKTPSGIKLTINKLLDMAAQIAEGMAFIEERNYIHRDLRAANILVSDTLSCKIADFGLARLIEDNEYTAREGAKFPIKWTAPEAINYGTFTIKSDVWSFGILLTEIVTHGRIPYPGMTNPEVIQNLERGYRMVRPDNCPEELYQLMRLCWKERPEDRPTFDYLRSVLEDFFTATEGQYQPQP
Measurement type: IC50

COc1cc2c(Nc3ccc(Br)cc3F)ncnc2cc1OCCCCN(C)C.Cl.Cl | 14 nM

----------
- Test system: FGFR1-3
- Type: biochemical
- Condition set: FGFR3; read-out: IC50, FGFR3
Measurement type: IC50

COc1cc2c(Nc3ccc(Br)cc3F)ncnc2cc1OCCCCN(C)C.Cl.Cl [HA121-28] | 23.1 nM

----------
- Test system: BEL-7402 cells
- Protocol notes: Tumor cell proliferation in vitro
- Assay type: cell-based
- Condition set: BEL-7402; read-out: IC50
pIC50: −log10 of the molar value.
Measurement type: pIC50

COc1cc2c(Nc3ccc(Br)cc3F)ncnc2cc1OCCCCN(C)C.Cl.Cl [HA121-28] | 4.00 to 5.00
